# assay.system: T1, cynomolgus PD-1 (#PD1-C52H5, AcroBiosystems) (cynomolgus monkey, UniProt B0LAJ3 25-170)
# T1 construct: bought; also called cynomolgus monkey PD-1; not shown: the vendor's tag on the recombinant protein (AcroBiosystems #PD1-C52H5)
# T1 sequence (B0LAJ3 entry or part of it limits assumed, form in doubt): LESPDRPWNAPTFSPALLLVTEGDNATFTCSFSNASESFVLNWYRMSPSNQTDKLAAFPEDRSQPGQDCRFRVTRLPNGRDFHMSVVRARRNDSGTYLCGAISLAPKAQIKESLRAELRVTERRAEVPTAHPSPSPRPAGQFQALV
# test.protocol: SPR, PD-1 on captured IgG1
Parameter: pKd. Scope: all listed entries.
Formally, pKd is defined as -log10 of the concentration c, with c in mol/L.

See these solved cases before continuing.
binder="KWH245 (antibody, human IgG1, V domains shown, human IgG1) VH: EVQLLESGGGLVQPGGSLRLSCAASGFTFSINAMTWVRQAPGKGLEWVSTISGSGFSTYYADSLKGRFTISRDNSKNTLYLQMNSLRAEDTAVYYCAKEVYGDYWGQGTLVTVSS VL: RSVLTQPPSASGTPGQRVSISCSGASSNIGSQSVFTYQQLPGTAPKLLIYSNNQRPSGVPDRFSGSKSGTSASLAISGLRSEDEADYYCAAWDDSLSIWVFGGGTKLTVL" recorded_metric=pKd recorded_value=8.64
binder="FHX509 (antibody, human IgG1, V domains shown, human IgG1) VH: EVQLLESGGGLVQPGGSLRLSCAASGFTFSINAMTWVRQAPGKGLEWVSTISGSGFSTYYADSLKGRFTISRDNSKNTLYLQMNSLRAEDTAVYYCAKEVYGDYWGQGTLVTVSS VL: RSVLTQPPSASGTPGQRVSISCSGASSNIGSQSVFWYQQLPGTAPKLLIYSNNQRPSGVPDRFSGSKSGTSASLAISGLRSEDEADYYCAAWDDSLSAWVFGGGTKLTVL" recorded_metric=pKd recorded_value=9.16

Next:
# binder JZW468 (antibody, human IgG1, V domains shown, human IgG1) VH: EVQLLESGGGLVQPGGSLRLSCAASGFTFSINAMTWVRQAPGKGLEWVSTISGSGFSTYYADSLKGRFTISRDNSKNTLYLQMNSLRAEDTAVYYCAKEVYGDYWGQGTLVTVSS VL: RSVLTQPPSASGTPGQRVSISCSGASSNIGSQSVFWYQQLPGTAPKLLIYSNNQRPSGVPDRFSGSKSGTSASLAISGLRSEDEADYYCAAWDDQLSIWVFGGGTKLTVL ; its pKd = 9.02
